B1: ZBTB22 (parent)
chain: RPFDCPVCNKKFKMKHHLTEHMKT

# Variants of: B1
# PROTOCOL_NOTES: protein stability index of a GFP-peptide fusion (GPS, HEK-293T) (PSI 1-6); higher = more stable;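 also: lentivirally expressed fusions sorted by FACS into six bins by GFP to DsRed ratio, PSI derived from sequencing read proportions per bin multiplied by bin number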
# CONDITION_PARAMETERS: c terminus: a fixed tail appended
Record true (1) whenever protein stability index is at 3 or higher; record false (0) when lower.

Worked examples follow.
RPFDCPVCNKKMKMKHHLTEHMKT [F12M]; false (0)
RPFDCPVCNKKFKMDHHLTEHMKT [K15D]; false (0)
RPFDCPVCNKKFKMPHHLTEHMKT [K15P]; false (0)
RPFDCCVCNKKFKMKHHLTEHMKT [P6C]; false (0)
RPFTCPVCNKKFKMKHHLTEHMKT [D4T]; true (1)

Please look at the following variant next.
Request: Test whether the variant RPFDCPVCNKKFKMKHHLTEHMKL [T24L] records protein stability index of 3 or higher.
Response: true (1)
